Could you please report measured GI50 for the items listed next?
Test system: MDA-MB-231
assay_explanation: NCI tumour cell line growth inhibition, 48 h
Activity calls are given as the source filed them. Rule as the data show it: active = GI50 up to about 1.1 µM and inactive = higher.

Look up GI50 of NC(=O)NC(=O)Nc1ccc(Br)cc1 and report it.
> 16.6 µM (inactive)

Please look at this molecule and report its GI50: CN1C(=O)CC2CCCN2C1=O (centres undefined)
> 100 µM (inactive)

Item CCCCCC(/C=N/NC(N)=S)C(O)(C(F)(F)F)C(F)(F)F (centres undefined) : provide GI50
> 10 µM (inactive)

For CC(=O)/C(=C/N1CC(=O)NC1=S)C(=O)Nc1ccccc1C , write its GI50.
> 100 µM (inactive)

Reference source: ChEMBL document CHEMBL1201862
